Just for reference, patent US20210380703A1 is where these values come from.

- experimental_target: human Fc (human)
- protocol_text: ELISA, negative control
Catalogue of binders with associated optical density
Give the value, in units of OD, as a plain number.

Please report the recorded optical density for 372_E01 (antibody, V domains shown) VH: EVQLLESGGGLVQPGGSLRLSCAASGFTFDDYSMNWVRQAPGKGLEWVSGINYNGGYKGYADSVKGRFTISRDNSKNTLYLQMNSLRAEDTAVYYCARGANWHDTALDYWGQGTLVTVSS VL: DIQMTQSPSSLSASVGDRVTITCRASQSIVSYLNWYQQKPGKAPKLVIYAATSRHSGVPSRFSGSGSGTDFTLTISSLQPEDFATYYCQQSYDSPLTFGGGTKVEIK .
0.409

Please report the recorded optical density for 369_B03 (antibody, V domains shown) VH: EVQLLESGGGLVQPGGSLRLSCAASGFTFSSYGMHWVRQAPGKGLEWVAGINYNGGYTSYADSVKGRFTISRDNSKNTLYLQMNSLRAEDTAVYYCARAANWHDTALDYWGQGTLVTVSS VL: DIQMTQSPSSLSASVGDRVTITCRASQSILTYVNWYQQKPGKAPKLVIYAATSLASGVPSRFSGSGSGTDFTLTISSLQPEDFATYYCQQSYELPLTFGGGTKVEIK .
0.62

Please report the recorded optical density for 365_D04 (antibody, V domains shown) VH: EVQLLESGGGLVQPGGSLRLSCAASGFTFSDYGMHWVRQAPGKGLEWVAGINYNGGYKSYADSVKGRFTISRDNSKNTLYLQMNSLRAEDTAVYYCARAANWHDTALDYWGQGTLVTVSS VL: DIQMTQSPSSLSASVGDRVTITCRASQSISSYLNWYQQKPGKAPKLVIYAVTSRASGVPSRFSGSGSGTDFTLTISSLQPEDFATYYCQQSYDLPLTFGGGTKVEIK .
0.316

Please report the recorded optical density for 373_A05 (antibody, V domains shown) VH: EVQLLESGGGLVQPGGSLRLSCAASGFTFSDYSMNWVRQAPGKGLEWVSGINYNSGYKSYADSVKGRFTISRDNSKNTLYLQMNSLRAEDTAVYYCARGANWHDTHLDYWGQGTLVTVSS VL: DIQMTQSPSSLSASVGDRVTITCRASQSILSYVNWYQQKPGKAPKLVIYAATSRHSGVPSRFSGSGSGTDFTLTISSLQPEDFATYYCQQSYESPLTFGGGTKVEIK .
0.172

Please report the recorded optical density for 369_C11 (antibody, V domains shown) VH: EVQLLESGGGLVQPGGSLRLSCAASGFTFSDYGMHWVRQAPGKGLEWVAGINYNGGYTGYADSVKGRFTISRDNSKNTLYLQMNSLRAEDTAVYYCARAATWHDTHLDYWGQGTLVTVSS VL: DIQMTQSPSSLSASVGDRVTITCRASQSILSYLNWYQQKPGKAPKLVIYAATSRASGVPSRFSGSGSGTDFTLTISSLQPEDFATYYCQQSYDTPLTFGGGTKVEIK .
0.378
